- Tested on: MM.1S cells
- measurementDescription: cells
- conditionNotes: Homo sapiens, MM1.S
endpointName: pIC50
The meaning of pIC50 here: minus log10 of the concentration in molar units.

Lab note: measured pIC50 of CC(C)C[C@H](NC(=O)[C@H](Cc1ccccc1)NC(=O)c1cnccn1)B(O)O [Bortezomib, reference compound] was 8.30

====

- Tested on: MM.1S, MM.1R, RPMI-8226, Dox-40, OPM2 and U266 cells
- measurementDescription: MTT cell viability of MM cell lines
- Format: cell-based, human
- conditionNotes: 24 h, range over all six cell lines; FIG. 5A
endpointName: IC50

// IC50 value for CC12OC(=O)C1(C(O)C1C=CCCC1)NC(=O)C2CCCl (stereo not shown) : 7 to 24 nM
